EXPERIMENTAL_SYSTEM: D(3) dopamine receptor (Homo sapiens, UniProt P35462)
Sequence (P35462 whole entry): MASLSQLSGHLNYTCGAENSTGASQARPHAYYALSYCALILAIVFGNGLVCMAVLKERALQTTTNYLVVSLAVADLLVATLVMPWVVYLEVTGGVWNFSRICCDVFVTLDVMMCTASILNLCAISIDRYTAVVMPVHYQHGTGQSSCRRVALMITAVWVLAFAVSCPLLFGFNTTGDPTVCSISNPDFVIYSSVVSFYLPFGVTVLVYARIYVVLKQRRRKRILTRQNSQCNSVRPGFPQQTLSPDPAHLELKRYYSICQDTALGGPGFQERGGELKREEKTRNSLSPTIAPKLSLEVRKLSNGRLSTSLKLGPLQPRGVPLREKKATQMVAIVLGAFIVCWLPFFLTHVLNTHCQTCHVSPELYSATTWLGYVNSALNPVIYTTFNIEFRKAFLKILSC
METHOD_SUMMARY: Compound was measured for the binding affinity in chinese hamster ovary (CHO) cells transfected with human Dopamine receptor D3 using [3H]raclopride as radioligand
Format: cell-based
pKi: −log10 of the molar value.
ENDPOINT_NAME: pKi

Some solved cases for reference:
# MOL_SMILES, pKi
records = [
    ("O=c1ccc2ccc(OCCCN3CCN(c4ccccc4)CC3)cc2o1", 7.30),
    ("Cc1cc2ccc(OCCCN3CCN(c4ccccc4)CC3)cc2oc1=O", 7.72),
]

P. Cc1cc(=O)oc2cc(OCCCN3CCN(c4ccccc4)CC3)ccc12
Q. Cc1c(C)c2ccc(OCCCN3CCN(c4ccccc4)CC3)cc2oc1=O
Q. Given the two records P and Q , choose the one whose pKi value is lower. Write down the label of the entry you select.
A. P
(P: 7.13, Q: 7.35)
